Molecular target: T1, NHERF3_1, Q5T2W1
T1 sequence (Q5T2W1 4-100, limits assumed, looked up): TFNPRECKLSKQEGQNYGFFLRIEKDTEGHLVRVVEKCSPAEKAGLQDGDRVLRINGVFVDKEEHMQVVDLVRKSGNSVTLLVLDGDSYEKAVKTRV
Experiment: holdup assay
Set-up: key: below the threshold = too weak to quantify, mostly under pKd 3.1 to 4
Conditions: plain residues with an end cap or a label only (N-terminal biotin on a linker: ahx)
Attribute: pKd
Output: the number by itself.

Some solved entries appear below for comparison.
SDSSGQEYSL [KCTD3, Q9Y597] | 3.8
TVICWPGSLV [LNX2, Q8N448] | 4.73
RAVEEEESRF [PSCDBP, O60759] | 4.34

Then there is this binder:
input: Looking for the measured pKd of RRRKRKRTYL [HPV49-L2, P36762] , can you help?
output: 4.86
